Measured ED50, listed per entry.
Test system: Candida albicans
assay.info: in vivo oral protection of mice inoculated with a lethal infection of Candida albicans
assay.context: oral administration to mice with lethal Candida albicans infection; survival of treated group after death of untreated group, 48 hours observation; read-out: PD50 (dose level providing 50% protection)
Description: The in vivo evaluation of the compounds can be carried out at a series of dose levels by intraperitoneal or intravenous injection or by oral administration, to mice which are inoculated with a strain of Candida albicans. Activity is based on the survival of a treated group of mice after the death of an untreated group of mice following 48 hours observation. The dose level at which the compound provides 50X protection against the lethal effect of the infection is noted. […]

As a guide, the following entries are already answered.
OC(Cc1ncc[nH]1)(Cn1cncn1)c1ccc(Cl)cc1Cl (stereo not shown) : 1.2 mg/kg
Cn1nnnc1CC(O)(Cn1cncn1)c1ccc(Cl)cc1Cl (stereo not shown) : 0.1 mg/kg
Cn1ccnc1CC(O)(Cn1cncn1)c1ccc(Cl)cc1Cl (stereo not shown) [Example 5, dimesylate] : 1 mg/kg

Proceeding to the next compound to report its ED50.
[Q] // ED50 lookup, key: OC(Cc1ncn[nH]1)(Cn1cncn1)c1ccc(Cl)cc1Cl (stereo not shown) [Example 2, dioxalate]
[A] 2.2 mg/kg

Data origin, for the record: patent EP0115400A1
